- Tested on: OVCAR-8 ovarian
- experiment description: NCI tumour cell line growth inhibition, 48 h; in the data active = GI50 below about 0.43 µM; inactive = the rest
Form entry, call: pick from active, inactive

[
  {
    "compound smiles": "COc1ccc(/C(C)=C(\\c2ccc(Cl)cc2)c2ccc(OCCN3CCCCC3)cc2)cc1",
    "study target": "OVCAR-8 ovarian",
    "group": "inactive"
  },
  {
    "compound smiles": "C=CCN1C(=O)c2cccc3c(N4CCOCC4)ccc(c23)C1=O",
    "study target": "OVCAR-8 ovarian",
    "group": "active"
  }
]

**Query** Outcome? Nc1n[nH]c2cccc(C#Cc3cccc(NC(=O)c4ccc(N5CCOCC5)c(C(F)(F)F)c4)c3)c12
**Result** inactive

---

Please go through the items and note down their TGI.
- Tested on: SF-295 CNS
- experiment description: NCI tumour cell line growth inhibition, 48 h

Recorded TGI, per entry:
[
  {
    "compound smiles": "COC(=O)Cc1cc2c(cc1C(=O)c1ccc(N)cc1)OCO2",
    "assay value": "5.33 µM"
  },
  {
    "compound smiles": "CC/C=C\\C/C=C\\C/C=C\\CCCCCCCC(=O)OC",
    "assay value": "> 100 µM"
  },
  {
    "compound smiles": "COc1cccc(C2=C(c3cn(C)c4ccc(Cl)cc34)C(=O)NC2=O)c1",
    "assay value": "> 15.1 µM"
  },
  {
    "compound smiles": "CCn1c(O)c(C=Nc2ccccc2)s/c1=N/Nc1ncc(CC(=O)Nc2ccccc2C)s1",
    "assay value": "> 100 µM"
  }
]

Now for a further compound.
**Query** Fill in TGI for record CC1(C)CC(C)(C)CC(O)(C2(O)CC(C)(C)CC(C)(C)C2)C1
**Result** > 100 µM

---

Answer each item with its documented TGI.
- System: UACC-257 melanoma
- experiment description: NCI tumour cell line growth inhibition, 48 h

In the examples that follow, each entry is paired with its recorded TGI.
[
  {
    "compound": "CCn1c(O)c(C=Nc2ccccc2)s/c1=N/Nc1ncc(CC(=O)Nc2ccccc2C)s1",
    "TGI": "> 100 µM"
  },
  {
    "compound": "CC1(C)OCC(C2OC3OC(C)(C)OC3C2N)O1 (centres undefined)",
    "TGI": "> 100 µM"
  },
  {
    "compound": "Cc1cn(C2CC(OC3CCCCO3)C(CO)O2)c(=O)[nH]c1=O (centres undefined)",
    "TGI": "> 100 µM"
  },
  {
    "compound": "COC(=O)C12C3C4(C(=O)OC)C1C1(C(=O)OC)C2C3(C(=O)OC)C41C(=O)N(C(C)C)C(C)C (centres undefined)",
    "TGI": "> 100 µM"
  },
  {
    "compound": "Clc1ccc(-c2nnc3c4nnc(-c5ccc(Cl)cc5Cl)n4c4ccccc4n23)c(Cl)c1",
    "TGI": "> 100 µM"
  },
  {
    "compound": "CSc1nc(-c2cc3ccccc3o2)cc(-c2ccc(Cl)cc2)c1C#N",
    "TGI": "> 100 µM"
  }
]

Could you tell me TGI for each of these compounds? They are listed below.
1. c1csc(-c2cc(-c3ccsc3)c(-c3ccsc3)s2)c1
2. CCOC(=O)CCc1cccc2c1oc1c(CCNC(=O)OCC3c4ccccc4-c4ccccc43)cccc12
3. COC(=O)C(Cc1c[nH]c2ccccc12)NP(=O)(O)OCC1OC(n2ccc(N)nc2=O)C(O)C1O (centres undefined)
4. C=C(CBr)CCCOCc1ccccc1
5. N#CC1(Nc2ccc(Br)cc2)CCCC1

**Result**
1: > 100 µM; 2: > 100 µM; 3: > 100 µM; 4: > 100 µM; 5: > 100 µM

---

Would you mind telling me the reported TGI of each entry?
- Test system: OVCAR-5 ovarian
- experiment description: NCI tumour cell line growth inhibition, 48 h

See these solved cases before continuing.
[
  {
    "compound smiles": "Cc1ccc(C(=O)N/N=C(\\N=Nc2cccc([N+](=O)[O-])c2)c2ccc(N(C)C)cc2)cc1",
    "study target": "OVCAR-5 ovarian",
    "TGI": "> 100 µM"
  },
  {
    "compound smiles": "O=C(CCc1nnc2s/c(=C\\c3ccccc3[N+](=O)[O-])c(=O)n12)Nc1cc(Cl)c(Cl)cc1Cl",
    "study target": "OVCAR-5 ovarian",
    "TGI": "> 100 µM"
  }
]

**Query** Identify the reported TGI for the following entry. C/C=C(/C)C(=O)O[C@H]1CCN2CC=C(COC(=O)[C@@](O)([C@H](C)OC)C(C)(C)O)[C@H]12
**Result** > 100 µM

---

- Tested on: COLO 205 colon
- experiment description: NCI tumour cell line growth inhibition, 48 h
Where a SMILES comes first, the peptide text is derived from it. [ ]: non-standard residue; d: D form. The star is where a group is joined. Dolaproine = CO[C@@H]([C@@H]1CCCN1)[C@@H](C)C(=O)O; Dil = CC[C@H](C)[C@H](NC)[C@@H](CC(=O)O)OC; X2 = C[C@@H](N*)[C@@H](O)c1ccccc1; NMeV = CN[C@H](C(=O)O)C(C)C
Exercise: state measured TGI for each of the compounds provided.

Can you give me TGI for all of these, one by one?
1. O=C(Cc1n[nH]c(=O)c2ccccc12)OCc1c(Cl)cccc1Cl
2. S=C(S)NCCNC(=S)S.[Cu+2]
3. CC1(C)CC(C)(C)CC(O)(C2(O)CC(C)(C)CC(C)(C)C2)C1
4. CC[C@H](C)[C@@H]([C@@H](CC(=O)N1CCC[C@H]1[C@H](OC)[C@@H](C)C(=O)N[C@H](C)[C@@H](O)c1ccccc1)OC)N(C)C(=O)[C@@H](NC(=O)[C@@H](NC)C(C)C)C(C)C (H-[NMeV]V[Dil][Dolaproine]-X2)

**Result**
["> 100 µM", "> 100 µM", "> 100 µM", "< 0.005 µM"]

---

I'd be grateful if you could share measured TGI for these entries.
- Test system: TK-10 renal
- experiment description: NCI tumour cell line growth inhibition, 48 h

Guide cases for TGI, answers given:
[
  {
    "molecule": "CC1(C)CC(C)(C)CC(O)(C2(O)CC(C)(C)CC(C)(C)C2)C1",
    "study target": "TK-10 renal",
    "TGI": "> 100 µM"
  },
  {
    "molecule": "OC1CCCN(C2(c3cccs3)CCCCC2)C1 (stereo not drawn)",
    "study target": "TK-10 renal",
    "TGI": "> 100 µM"
  }
]

Field: next molecule
**Query** Please respond with reported TGI (system TK-10 renal) for O=C(CC1(O)C(=O)Nc2c(Cl)cc(Cl)cc21)c1ccc(Br)cc1 (stereo not drawn) .
**Result** 32.1 µM

---

- Test system: UACC-62 melanoma
- experiment description: NCI tumour cell line growth inhibition, 48 h
reported metric: TGI

As a guide, the following entries are already answered.
[
  {
    "compound": "COc1nc(-c2c[nH]c3ccccc23)cnc1N",
    "TGI": "33.1 µM"
  },
  {
    "compound": "COc1cc2c(/C=C3/C(=O)Nc4c3ccc3ccccc43)c(Cl)n(C)c2cc1C",
    "TGI": "15.4 µM"
  },
  {
    "compound": "Cc1ccc(-n2c(O)c(C=N)c(=O)n(-c3ccc(C)cc3)c2=O)cc1",
    "TGI": "> 100 µM"
  },
  {
    "compound": "CC1(C)CC(C)(C)CC(O)(C2(O)CC(C)(C)CC(C)(C)C2)C1",
    "TGI": "> 100 µM"
  },
  {
    "compound": "Cc1ccccc1OC(C)C(=O)NN1C(=O)CC(=O)NC1=S (stereo unspecified)",
    "TGI": "> 100 µM"
  },
  {
    "compound": "O=c1[nH]cnc2c1sc(=S)n2-c1ccccc1",
    "TGI": "> 100 µM"
  },
  {
    "compound": "CC(=O)OCC1OC(N2C(=O)NC(=O)C3C=C4CCCCC4=CC32)C(OC(C)=O)C1OC(C)=O (stereo unspecified)",
    "TGI": "> 100 µM"
  },
  {
    "compound": "CNC(=O)c1ccccc1Nc1cc(Nc2ccc(N3CCOCC3)cc2OC)ncc1C(F)(F)F",
    "TGI": "20.4 µM"
  },
  {
    "compound": "O=C1C(=O)c2cc([N+](=O)[O-])ccc2-c2ccc([N+](=O)[O-])cc21",
    "TGI": "1.54 µM"
  },
  {
    "compound": "C=CC(=O)C#CC#CC/C=C\\CCCCCCC",
    "TGI": "> 20.6 µM"
  }
]

With those in mind, consider the next compound.
**Query** Please report TGI for the following compound: Cc1cc(Cl)nc(Nc2nc3ccccc3[nH]2)n1
**Result** > 100 µM
